Test system: Plasmodium berghei
experimental-details: Screen against P. berghei liver stage (PbLuc), transformed with Luciferase, at 2uM
Type: functional, HepG2
condition-info: tested at 2 uM
The whole screen tested about 68,000 compounds, of which about 2,700 (4%) showed an effect of 50% or more. This excerpt belongs to a sample that is enriched for strong results.
Exercise: state measured INHIBITION for each of the compounds provided.

Query: Consider the compound Cn1ncc2c(=O)[nH]c(CN3CCCC3CC3CCCCC3)nc21 (stereo unspecified) and give its measured INHIBITION.
Response: -5.15%

Query: Same question, COc1ccc(-c2nnc(SC(C)C(=O)NCC(C)C)[nH]2)c(OC)c1 (stereo unspecified) this time
Response: 59.18%

Query: Same question, "O=C(c1cnc(C2CC2)nc1O)N1CCN(Cc2ccccc2F)CC1" this time
Response: 15.34%

Query: Same question, "CC(=O)Nc1ccc2c(c1)CN(C(=O)c1ccco1)CC2" this time
Response: 33.08%

Query: Same question, CCN1CCC(CNC(=O)C2(c3ccc(F)cc3)CC2)C1 (stereo unspecified) this time
Response: 20.41%

Query: Same question, COCC1c2c(cnn2C)CCN1Cc1ccsc1 (stereo unspecified) this time
Response: -61.95%

Query: Same question, Cc1cc(C2CCC2)nc(N2CCC3(CCCNC3=O)C2)n1 (stereo unspecified) this time
Response: 4.74%

Query: Same question, "CS(=O)(=O)c1nccn1Cc1ccc(OC(F)F)cc1" this time
Response: -35.45%

Query: Same question, "O=C(CCc1cc(Cl)no1)N1CCC(c2cc3ncccc3cn2)CC1" this time
Response: 15.72%

Query: Same question, Cc1cnc(C)c(N2CCCC(CO)(Cc3cccc(Cl)c3)C2)n1 (stereo unspecified) this time
Response: 8.14%

Query: Same question, COCCN1CCC(CNC(=O)C2(c3cc(C)cc(C)c3)CCC2)C1 (stereo unspecified) this time
Response: -36.13%

Query: Same question, "CN(C)S(=O)(=O)N1CC[C@]2(O)CCN(c3cc(C#N)ccn3)C[C@@H]2C1" this time
Response: 57.68%

Query: Same question, "CC(=O)N1CCN([C@@H]2CCC[C@@H](NC(=O)c3cccnc3)[C@H]2O)CC1" this time
Response: 20.44%

Query: Same question, "CN(Cc1cnc(N)nc1)C(=O)c1coc(COc2ccccc2)n1" this time
Response: -31.73%

Query: Same question, "Cc1ccc2c(c1)c(Sc1ccccc1)c(CC(=O)O)n2C" this time
Response: -36.84%

Query: Same question, "CS(=O)(=O)N1CC[C@]2(O)CCN(c3cc(C#N)ccn3)C[C@@H]2C1" this time
Response: 19.44%

Query: Same question, CC(COc1ccc(F)cc1F)NC(=O)NCCN1CCOCC1 (stereo unspecified) this time
Response: -30.55%

Query: Same question, Cc1nc(N2CCC3(CCCNC3=O)C2)nc2c1CCCC2 (stereo unspecified) this time
Response: 62%

Query: Same question, "CC=C(C)C(=O)NS(=O)(=O)c1ccc(C(F)(F)F)cn1" this time
Response: -31.15%

Query: Same question, "COc1ccc(OCCN(C)Cc2nc3c(cnn3C)c(=O)[nH]2)cc1" this time
Response: 72.31%

Query: Same question, COCCN1CCC(CNC(=O)C2(c3cccc(C)c3)CC2)C1 (stereo unspecified) this time
Response: 43.79%

Query: Same question, CCNC(=O)NC(=O)CN1CCOC(c2cccc(Br)c2)C1 (stereo unspecified) this time
Response: 16.72%

Query: Same question, Cn1cnnc1C1CCCN(C(=O)NCc2cc[nH]n2)C1 (stereo unspecified) this time
Response: 28.65%

Query: Same question, "CN(CCCOc1ccc(F)cc1)Cc1nc2c(cnn2C)c(=O)[nH]1" this time
Response: -45.72%

Query: Same question, Cn1ncc2c(=O)[nH]c(CN3CCCC3CC(C)(C)C)nc21 (stereo unspecified) this time
Response: 70.27%

Query: Same question, OCC1CCC2(CC1)CN(Cc1ccccc1F)Cc1ccccc1O2 (stereo unspecified) this time
Response: 2.71%

Query: Same question, "CS(=O)(=O)Cc1ccc(NC(=O)c2cccnc2)cc1F" this time
Response: -35.1%

Query: Same question, CC(C)(C(=O)N1CCC(C(N)=O)C1)c1ccccc1F (stereo unspecified) this time
Response: 60.9%

Query: Same question, "COc1ccc(C)cc1-n1c(COC(C)C)n[nH]c1=O" this time
Response: -19.78%

Query: Same question, "O=C(c1cccnc1O)N1CCN(Cc2ccccc2F)CC1" this time
Response: -24.15%

Query: Same question, "COCCN1CCC(CNC(=O)C2(c3cccc(C)c3)CC2)CC1" this time
Response: 3.9%

Query: Same question, "COc1c(F)ccc(C(=O)N2CC[C@H](CO)[C@@H](O)C2)c1F" this time
Response: -15.37%

Query: Same question, "COc1ccc(-c2nnc(SCC(=O)NCC(C)C)[nH]2)c(OC)c1" this time
Response: -8.24%

Query: Same question, "COCCCN1CCC(C(=O)c2cc(F)ccc2F)CC1" this time
Response: -6.4%

Query: Same question, "Cc1noc(C)c1CN1CCC2(CCN(Cc3cccc(F)c3)CC2)C1" this time
Response: 24.04%

Query: Same question, CCC1CCCCN1Cc1nc2c(cnn2C)c(=O)[nH]1 (stereo unspecified) this time
Response: -31.57%

This collection of values is drawn from ChEMBL document CHEMBL4513216.
